Measurement Target: rat GHS-R (GHS receptor) expressed on CHO-GHSR62 cells (rat, UniProt O08725 1-364)
Sequence (O08725 whole entry): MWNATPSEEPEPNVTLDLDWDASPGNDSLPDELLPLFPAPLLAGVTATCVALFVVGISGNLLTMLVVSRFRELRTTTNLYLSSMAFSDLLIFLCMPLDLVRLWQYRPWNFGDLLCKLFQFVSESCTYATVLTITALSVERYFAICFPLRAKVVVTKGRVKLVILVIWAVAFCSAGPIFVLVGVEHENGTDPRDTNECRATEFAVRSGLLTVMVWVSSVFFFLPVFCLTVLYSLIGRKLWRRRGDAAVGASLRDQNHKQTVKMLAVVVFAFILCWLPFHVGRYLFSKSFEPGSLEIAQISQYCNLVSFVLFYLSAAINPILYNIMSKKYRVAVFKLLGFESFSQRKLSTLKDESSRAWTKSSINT
Assay: cell-based or functional assay
Ends that are not written are not given here. * marks the point of attachment. Octanoyl = CCCCCCCC(=O)*; Butyryl = CCCC(=O)*
Observable: Ca-releasing activity (EC50, nM)

GSS(Octanoyl)FLSPEH [Ghrelin (1-9)] = 38
GSS(Ac)FLSPEHQKAQQRKESKKPPAKLQPR [[Ser^3(Acetyl)]-rGhrelin] = 780

A. GSS(Butyryl)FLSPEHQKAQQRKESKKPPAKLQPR [[Ser^3(Butyryl)]-rGhrelin]
B. GSS(Octanoyl)FLSPEHQR [hGhrelin (1-11)]
[in] Out of A and B , name the one with the higher Ca-releasing activity (EC50, nM). State the label of the item chosen.
[out] A
(A: 280 nM, B: 15 nM)
